attribute.measured: melting point

In [3]: df
Out[3]:
                                    compound  reported_value
 0              O=C(c1cc(O)c2occc2c1)c1ccco1   140 to 142 °C
 1  COC1(c2cc(F)cc(OCc3nc(-c4ccccc4)c(-c4ccc(S(N)(=O)=O)cc4)o3)c2)CCOCC1     70 to 80 °C
 2  O=C(CCCCCCCCCCCCC(=O)Oc1cc(O)cc(O)c1)Oc1cc(O)cc(O)c1   140 to 145 °C
 3  O=C(O)c1cc(C(c2cc(F)ccc2F)S(=O)(=O)c2ccc(Cl)cc2)c(F)cn1 (stereo not given)   208 to 209 °C
 4  O=c1[nH]c2cc(F)c(F)cc2c(=O)n1CCCN1CC=C(c2ccc(Cl)cc2)CC1   204 to 205 °C
 5  N=C(N)Nc1nc(CSCCNC(=O)c2cccc(NS(=O)(=O)c3ccccc3)c2)cs1   175 to 178 °C
 6  CC(=O)NCCCC(=O)N1CC1C#N (stereo not given)     72 to 75 °C
 7  Cc1cc(SC2CC(=O)N(C)C2=O)cc(C(C)(C)C)c1N (stereo not given)     92 to 94 °C
 8               CC(=O)NCCNC(=O)c1ccc(Cl)cc1   222 to 224 °C
 9  N#CCCc1cccc2c1N(Cc1cccc(/C=C/c3ccc4ccccc4n3)c1)CC2   126 to 129 °C
10  COC(=O)C(CO)Nc1ccccc1[N+](=O)[O-] (racemic)   138 to 140 °C
11    CC(C)c1ccc(S(=O)(=O)Nc2ccc(Cl)cc2I)cc1          149 °C
12  COc1ccc(CNC(=S)N2C(=O)CC(c3ccc(OC)c(OC4CCCC4)c3)N2C)cc1 (stereo not given)     52 to 55 °C
13    O=S(=O)(Nc1cc(Br)c(O)c2ccccc12)c1cccs1   128 to 130 °C
14                    CCCc1cccc(C(C)(C)C)c1O     89 to 90 °C
15                        CCSc1nc2nsc(N)c2s1   131 to 134 °C
16     COc1cc2cc(CO)c(CO)c(-c3ccncc3)c2cc1OC   118 to 120 °C
17      COc1cc2c(cc1OC)-c1ncc(C#N)c(=O)n1CC2   261 to 262 °C
18  COc1ccc(N2CCOCC2)c2sc(-c3nc4c([nH]3)CCN(C(=O)OC(C)(C)C)CC4)nc12          120 °C
19  CCc1c(C(=O)C(N)=O)c2c(OCC(=O)NOC(C)(C)C)cccc2n1Cc1ccccc1   203 to 205 °C
20  C=CC[C@H](CC(=O)OC(C)(C)C)C(=O)N[C@H](C(=O)N[C@H](COC)c1ccccc1)C(C)C   155 to 157 °C
21                        CC(C)c1c[nH]c(S)n1   147 to 150 °C
22  Cc1cc(OCCNC(=O)C2Cc3ccccc3N2S(=O)(=O)c2ccc(-c3cc(C(F)(F)F)ccc3Cl)cc2)ccc1CC(=O)O (stereo not given)   110 to 115 °C
23       CCCCn1c(=O)c(=O)[nH]c2c3ccccc3ccc21          269 °C
24  CC(=C1SC(=O)NC1=O)c1ccc(OCCOc2c(-c3ccc(F)c(F)c3)n(C)c3ccccc3c2=O)c(F)c1   204 to 206 °C
25  CS(=O)(=O)c1ccc(-c2cnn(-c3ccc(F)c(F)c3)c(=O)c2C#Cc2ccccc2)cc1   211 to 213 °C
26  CC(c1cccnc1)n1nnc2cc3c(cc2c1=O)OC1CCCN1C3=O (stereo not given)   195 to 196 °C
27  CC1(C)CC2(CC(C)(C)c3ccc(O)cc32)c2cc(O)ccc21   215 to 217 °C
28  CCCN1CCN(Cc2ccc3c(c2)-c2[nH]nc(-c4ccsc4)c2C3)CC1   185 to 187 °C
29  Cc1cc(C(=O)N2Cc3cccn3Cc3ccccc32)ccc1[N+](=O)[O-]   246 to 248 °C
30  CC(=O)SCC(Cc1ccccc1)C(=O)Nc1ccc(C(N)=O)cc1 (stereo not given)   195 to 197 °C
31  COc1ccc(N2C(=O)[C@H](O)[C@@H]2CC2CCCCC2)cc1   152 to 155 °C
32    CC(C)(C#N)c1c(Cl)cc([N+](=O)[O-])cc1Cl           80 °C
33  Cc1cc(Cl)cc(C(=O)c2ccc(S(C)(=O)=O)cc2Cl)c1O   175 to 180 °C
34       CC(=O)N1CCC(CCCC(=O)c2ccc(F)cc2)CC1     77 to 78 °C
35  NC1=NN(c2ccccc2)C(c2ccc(Cl)cc2)C1 (stereo not given)   184 to 186 °C
36  CCCc1cc2cc(O)c(F)cc2c(Oc2ccc(/C=C/C(N)=O)cc2)c1-c1ccccc1   121 to 124 °C
37  CCCn1cc2c(C3C(=O)Nc4ccc(Br)cc43)nc(NCC(C)N)nc2n1 (stereo not given)   247 to 250 °C
38             CNC(=O)c1ccc(N2CCNCC2)c(Cl)c1   176 to 189 °C
39      Fc1ccc2c(c1)C(=C1CCNCC1)c1ccccc1C=C2          161 °C
